Experiment: Bioavailability of phenylephrine: plasma levels after delivery to the colon via Enterion capsules or oral Sudafed PE
Format: in vivo, human
Details: both sexes, human, plasma, oral; 30 mg to colon via Enterion capsule (Regimen C); 0.75 h post-dose; read-out: Mean plasma concentration (Unconjugated)
Where a name gives a salt, the structure may show the parent alone.
property_name: concentration at […] (ng/mL)
Report only the number, with the unit ng/mL understood.

Quick one: concentration at […] of CNC[C@H](O)c1cccc(O)c1 [Phenylephrine hydrochloride, phenylephrine hydrochloride] ?
0.242

----------
Assay: Bioavailability of phenylephrine: plasma levels after delivery to the colon via Enterion capsules or oral Sudafed PE
Assay type: in vivo, human
Conditions: both sexes, human, plasma, oral; 30 mg to colon via Enterion capsule (Regimen C); 12 h post-dose; read-out: Mean plasma concentration (Unconjugated)
Method: The following study was conducted to examine the phenylephrine absorption behavior in GI tract. […] Enterion™ capsules (Pharmaceutical Profiles Ltd, UK) allow for deployment of drug delivery at a desired location within the GI tract. […] The plasma was analyzed for phenylephrine in its conjugated and unconjugated forms. The amount of conjugated phenylephrine was calculated by subtracting the amount of unconjugated phenylephrine assayed from the amount of total phenylephrine assayed. […]
Structures can show the parent of a compound that is named as a salt.
property_name: concentration at 12 h (ng/mL)
Report only the number, with the unit ng/mL understood.

Quick one: concentration at 12 h of CNC[C@H](O)c1cccc(O)c1 [Phenylephrine hydrochloride, phenylephrine hydrochloride] ?
0.195

----------
Experiment: Bioavailability of phenylephrine: plasma levels after delivery to the colon via Enterion capsules or oral Sudafed PE
Format: in vivo, human
Conditions: both sexes, human, plasma, oral; 10 mg to colon via Enterion capsule (Regimen A); 6 h post-dose; read-out: Mean plasma concentration (Unconjugated)
Where a name gives a salt, the structure may show the parent alone.
property_name: concentration at 6 h

Quick one: concentration at 6 h of CNC[C@H](O)c1cccc(O)c1 [Phenylephrine hydrochloride, phenylephrine hydrochloride] ?
0.111 ng/mL

----------
Test: Bioavailability of phenylephrine: plasma levels after delivery to the colon via Enterion capsules or oral Sudafed PE
Type: in vivo, human
Conditions: both sexes, human, plasma, oral; 10 mg to colon via Enterion capsule (Regimen A); 1 h post-dose; read-out: Mean plasma concentration (Unconjugated)
Structures can show the parent of a compound that is named as a salt.
property_name: concentration at 1 h

Quick one: concentration at 1 h of CNC[C@H](O)c1cccc(O)c1 [Phenylephrine hydrochloride, phenylephrine hydrochloride] ?
0.135 ng/mL

----------
Assay: Bioavailability of phenylephrine: plasma levels after delivery to the colon via Enterion capsules or oral Sudafed PE
Type: in vivo, human
Conditions: both sexes, human, plasma, oral; 30 mg to colon via Enterion capsule (Regimen C); 0.083 h post-dose; read-out: Mean plasma concentration (Unconjugated)
Experimental: The following study was conducted to examine the phenylephrine absorption behavior in GI tract. […] Enterion™ capsules (Pharmaceutical Profiles Ltd, UK) allow for deployment of drug delivery at a desired location within the GI tract. […] The plasma was analyzed for phenylephrine in its conjugated and unconjugated forms. The amount of conjugated phenylephrine was calculated by subtracting the amount of unconjugated phenylephrine assayed from the amount of total phenylephrine assayed. […]
Counter-ions that a name gives are not always drawn.
property_name: concentration at 0.083 h
Numeric answer plus unit only.

Quick one: concentration at 0.083 h of CNC[C@H](O)c1cccc(O)c1 [Phenylephrine hydrochloride, phenylephrine hydrochloride] ?
0.0458 ng/mL

Data provenance is patent US8956662B2.
